Data credit: paper PMC2873993

target: Imig (Homo sapiens, UniProt P04062, R534H); experiment: Inhibition of Imig by active site-directed GCase inhibitors (4MU-Glc substrate); conditions: 8 pmol enzyme protein; SE ≤20%
Sequence (P04062 40-536 R534H): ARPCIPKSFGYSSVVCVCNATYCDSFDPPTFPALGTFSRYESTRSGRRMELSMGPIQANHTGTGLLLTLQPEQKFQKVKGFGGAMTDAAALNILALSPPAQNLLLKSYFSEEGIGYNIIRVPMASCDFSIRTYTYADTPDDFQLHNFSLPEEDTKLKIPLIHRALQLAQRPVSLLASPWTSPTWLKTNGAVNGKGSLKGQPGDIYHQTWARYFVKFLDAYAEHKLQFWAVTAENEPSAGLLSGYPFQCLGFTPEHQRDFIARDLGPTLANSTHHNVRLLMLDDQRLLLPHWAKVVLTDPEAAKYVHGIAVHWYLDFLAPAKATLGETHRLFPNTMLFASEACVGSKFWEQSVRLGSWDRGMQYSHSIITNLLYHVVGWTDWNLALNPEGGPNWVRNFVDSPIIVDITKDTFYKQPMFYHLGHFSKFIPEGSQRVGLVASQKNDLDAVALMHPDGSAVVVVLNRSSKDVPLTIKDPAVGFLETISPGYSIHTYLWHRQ
ASSAY_METRIC: IC50 (µM)
Answer with a number only, understood to be in µM.

Data request, read-out IC50, for O[C@H]1[C@H](O)[C@@H](O)[C@@H]2O[C@@H]2[C@@H]1O (racemic) [Conduritol B epoxide] 146

---

target: Vela (Homo sapiens, UniProt P04062); assay: Inhibition of Vela by active site-directed GCase inhibitors (4MU-Glc substrate); conditions: 8 pmol enzyme protein; SE ≤20%
Sequence (P04062 40-536): as the sequence (P04062 40-536 R534H) above, with H495R counted along it
ASSAY_METRIC: pIC50
# pIC50 = -log10(concentration in molar units)

So what pIC50 did O[C@H]1[C@H](O)[C@@H](O)[C@@H]2O[C@@H]2[C@@H]1O (racemic) [Conduritol B epoxide] get with Vela (Homo sapiens, UniProt P04062)? 4.00
